Numbers sourced from PubChem BioAssay.

molecular target: Fibroblast growth factor 2 (Homo sapiens); test: FGF2 binders on small-molecule microarrays, primary screen, biochemical, small-molecule microarray, 635/667 nm fluorescence (AID 1133); details: small-molecule microarray binding, FGF2, fluorescence 635/667; higher = more signal
Each entry below lists one item and its recorded composite z-score value.
Please reply with the number alone, leaving off any unit.

{"Compound": "CCOC(=O)C[C@H]1[C@H](OC(=O)c2ccccc2-c2ccccc2)[C@@H](NC(=O)c2ccc3ccccc3c2)c2cc(OCCCO)ccc2N1C(=O)c1ccc2ccccc2n1", "composite z-score": 0.306}

Give recorded composite z-score. COc1ccc(CCNC(=O)[C@@]2(c3ccc([N+](=O)[O-])cc3)CC(=O)N(CC34CC5CC(CC(C5)C3)C4)[C@@H]2c2ccc(CO)cc2)cc1
1.21

Give recorded composite z-score. O=C1C2C=CC(C(O)c3cccs3)N(Nc3ccccc3F)C2C(=O)N1c1ccccc1 (stereo unspecified)
-0.282

Give recorded composite z-score. COc1ccc([Si](C)(C)[C@@H]2[C@@H](CCn3cc([C@H](O)c4ccccc4)nn3)O[C@]3(C(=O)N(Cc4ccc(N5C(=O)c6cccc7cccc5c67)cc4)c4ccccc43)[C@H]2C)cc1
-0.513

Give recorded composite z-score. CCCCCCCCCCC(O)C1C=CC2C(=O)N(Cc3ccccc3)C(=O)C2N1n1cnnc1 (stereo unspecified)
-0.982

Give recorded composite z-score. O=C1C2C=CC(C(O)c3ccc(B(O)O)cc3)N(Nc3ccccc3)C2C(=O)N1c1ccccc1 (stereo unspecified)
-0.581

----------
biological target: Concanavalin-A (Canavalia ensiformis); experiment: ConA small-molecule binders, primary screen, artefact control for SMM control protein annotation, biochemical, small-molecule microarray, Alexa647 label, 635 nm (AID 1127); settings: ConA-A647 binding fluorescence, higher = more signal;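 further: z combines 667 nm emission intensity with signal-to-noise across three replicate slides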
Recorded Metric: composite z-score
Please reply with the number alone, leaving off any unit.

{"Molecule": "[N-]=[N+]=NCc1ccccc1[C@H]1OC(c2ccc(OCCCO)cc2)=N[C@@]1(CCS(=O)(=O)c1ccccc1)C(=O)N1CCOCC1", "composite z-score": 1.11}
{"Molecule": "COC(=O)c1ccc(C(O)C2C=CC3C(=O)N(c4ccccc4)C(=O)C3N2Nc2ccc(C#N)cc2)o1 (stereo not drawn)", "composite z-score": 0.635}
{"Molecule": "C=CC[C@]1(C(=O)N2CCOCC2)N=C(c2ccc(OCCCO)cc2)O[C@H]1c1ccccc1", "composite z-score": 1.09}
{"Molecule": "CS(=O)(=O)CCOC(=O)C1=CC(CCCO)=CC(c2cccs2)N(Cc2cc3c(cc2Br)OCO3)C=C1C(=O)OCCS(C)(=O)=O (stereo not drawn)", "composite z-score": 0.986}
{"Molecule": "O=C1OCC=C[C@H]2OC34C=CCN(c5ccc(Cl)cc5)C(=O)[C@H]3N(CCCCCCO)C(=O)[C@@H]4[C@@H]12 (stereo partly drawn)", "composite z-score": -1.59}

State the measured composite z-score (Concanavalin-A (Canavalia ensiformis)) of CCCCCN1CC=CC23O[C@@H]4C=CCOC(=O)[C@@H]4[C@H]2C(=O)N(CCCO)[C@@H]3C1=O (stereo partly drawn)
0.221

State the measured composite z-score (Concanavalin-A (Canavalia ensiformis)) of O=C(CCN1CCOCC1)c1cccc(O)c1
0.767

State the measured composite z-score (Concanavalin-A (Canavalia ensiformis)) of C=CCC(OC(C)=O)[C@@H]1[C@@H](N(Cc2ccc(-c3ccccc3)cc2)C(=O)Cc2ccc(OC)cc2)c2cc(OCCCO)ccc2N1C(=O)c1ccc2ccccc2n1 (stereo partly drawn)
0.177
